Recorded values, source ChEMBL document CHEMBL2407052.

test-target: Carbonic anhydrase 1 (Homo sapiens)
Sequence (P00915 2-261 limits assumed): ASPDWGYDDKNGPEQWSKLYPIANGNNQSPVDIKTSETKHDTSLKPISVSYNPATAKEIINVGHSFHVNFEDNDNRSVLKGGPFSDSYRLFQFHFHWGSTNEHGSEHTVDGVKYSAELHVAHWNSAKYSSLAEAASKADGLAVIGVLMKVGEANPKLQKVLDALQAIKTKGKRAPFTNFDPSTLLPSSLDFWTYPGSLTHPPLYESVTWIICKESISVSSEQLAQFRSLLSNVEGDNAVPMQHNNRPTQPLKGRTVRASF
experimental-protocol: Inhibition of human cytosolic carbonic anhydrase 1 up to 50 uM after 6 hrs by stopped flow CO2 hydrase assay
Active and inactive are the calls of the source. The rule behind the calls is not given here.
readout-label: inhibition

Please review the entries below; each comes with its answer.
{"compound": "O=S1(=O)C=Cc2ccc(O)cc2O1", "inhibition": "inactive"}
{"compound": "O=S1(=O)CC(O)c2ccc(OCc3ccccc3)cc2O1 (racemic)", "inhibition": "inactive"}
{"compound": "CS(=O)(=O)Oc1ccc2c(c1)OS(=O)(=O)C=C2", "inhibition": "inactive"}
{"compound": "CC(=O)Oc1ccc2c(c1)OS(=O)(=O)C=C2", "inhibition": "inactive"}
{"compound": "O=S1(=O)CCc2ccc(O)cc2O1", "inhibition": "inactive"}

Next item in the queue.
Item O=C(Cc1ccccc1Br)Oc1ccc2c(c1)OS(=O)(=O)CC2 has what recorded inhibition? inactive

---

test-target: Carbonic anhydrase 9 (Homo sapiens, UniProt Q16790)
experimental-protocol: Inhibition of human transmembrane carbonic anhydrase 9 up to 50 uM after 6 hrs by stopped flow CO2 hydrase assay
Calls of active or inactive are those of the source. The rule behind the calls is not given here.
readout-label: inhibition

{"molecule": "O=C(Cc1ccccc1Br)Oc1ccc2c(c1)OS(=O)(=O)C=C2", "readout-label": "inhibition", "test-value": "inactive"}
{"molecule": "O=S1(=O)CC(O)c2ccc(OCc3ccccc3)cc2O1 (racemic)", "readout-label": "inhibition", "test-value": "inactive"}
{"molecule": "O=C(Cc1ccccc1Br)Oc1ccc2c(c1)OS(=O)(=O)CC2", "readout-label": "inhibition", "test-value": "inactive"}

---

test-target: Carbonic anhydrase 9 (Homo sapiens)
experimental-protocol: Inhibition of human transmembrane carbonic anhydrase 9 up to 50 uM after 6 hrs by stopped flow CO2 hydrase assay
Activity calls are given as the source filed them. The rule behind the calls is not given here.
readout-label: inhibition

Please review the entries below; each comes with its answer.
{"compound": "CC(=O)Oc1ccc2c(c1)OS(=O)(=O)C=C2", "test-target": "Carbonic anhydrase 9 (Homo sapiens)", "inhibition": "inactive"}
{"compound": "O=S1(=O)CC(O)c2ccc(O)cc2O1 (stereo not drawn)", "test-target": "Carbonic anhydrase 9 (Homo sapiens)", "inhibition": "inactive"}
{"compound": "O=S1(=O)CCc2ccc(OCc3ccccc3)cc2O1", "test-target": "Carbonic anhydrase 9 (Homo sapiens)", "inhibition": "inactive"}
{"compound": "O=C(Cc1ccc(Cl)cc1)Oc1ccc2c(c1)OS(=O)(=O)CC2", "test-target": "Carbonic anhydrase 9 (Homo sapiens)", "inhibition": "inactive"}
{"compound": "O=S1(=O)CCc2ccc(O)cc2O1", "test-target": "Carbonic anhydrase 9 (Homo sapiens)", "inhibition": "inactive"}

Item CS(=O)(=O)Oc1ccc2c(c1)OS(=O)(=O)C=C2 has what recorded inhibition? inactive

Item COc1ccc2c(c1)OS(=O)(=O)CC2 has what recorded inhibition? inactive

Item CS(=O)(=O)Oc1ccc2c(c1)OS(=O)(=O)CC2 has what recorded inhibition? inactive

Item O=S1(=O)C=Cc2ccc(OCc3ccccc3)cc2O1 has what recorded inhibition? inactive

Item COc1ccc2c(c1)OS(=O)(=O)C=C2 has what recorded inhibition? inactive

---

test-target: Carbonic anhydrase 9 (Homo sapiens, UniProt Q16790)
experimental-protocol: Inhibition of human transmembrane carbonic anhydrase 9 up to 50 uM after 6 hrs by stopped flow CO2 hydrase assay
Active and inactive are the calls of the source. No cut-off for these calls is given here.

{"chemical-string": "CC(=O)Oc1ccc2c(c1)OS(=O)(=O)CC2", "inhibition": "inactive"}
{"chemical-string": "O=C(Cc1ccc(Cl)cc1)Oc1ccc2c(c1)OS(=O)(=O)C=C2", "inhibition": "inactive"}
{"chemical-string": "O=S1(=O)C=Cc2ccc(O)cc2O1", "inhibition": "inactive"}
